ASSAY: Metabolic stability study in mouse liver microsomes
Assay type: in vitro ADME
EXPERIMENTAL_CONTEXT: 1 μM, 37° C., 15 min
Each entry below lists one item and its recorded Percentage of compound remained after 15 min value.
READOUT_NAME: Percentage of compound remained after 15 min

COMPOUND	VALUE_MEASURED
Cc1cnc(CC2=CCN(C(=O)/C=C/c3cnc4c(c3)CCC(=O)N4)CC2)s1 [Compound 57]	86.8%
O=C(/C=C/c1cnc2c(c1)CN(CCN1CCOCC1)C(=O)N2)N1CC=C(Cc2cccs2)CC1 [Compound 90]	32.4%
CC(C)CC(=O)N1CCC2(CC1)Cc1cc(/C=C/C(=O)N3CC=C(Cc4cccs4)CC3)cnc1NC2=O [Compound 140]	1.9%
O=C(/C=C/c1cnc2c(c1)CN(CCN1CCC3(CC1)COC3)C(=O)N2)N1CC=C(Cc2cccs2)CC1 [Compound 147]	4.0%
CN1CC(=O)Nc2ncc(/C=C/C(=O)N3CC=C(Cc4cccs4)CC3)cc2C1 [Compound 93]	16.1%
CC(=O)Nc1ccc(/C=C/C(=O)N2CC=C(Cc3cccs3)CC2)cn1 [Compound 88]	11.1%
O=C1CCc2cc(/C=C/C(=O)N3CC=C(c4ccccc4)CC3)cnc2N1 [Compound 2]	99.7%
CC(C)(C)OC(=O)N1CCC2(CC1)Cc1cc(/C=C/C(=O)N3CC=C(Cc4cccs4)CC3)cnc1NC2=O [Compound 94]	55.7%
O=C1CCc2cc(/C=C/C(=O)N3CC=C(Cc4ccccc4)CC3)cnc2N1 [Compound 62]	78.5%
O=C1CCNc2cc(/C=C/C(=O)N3CC=C(Cc4nccs4)CC3)cnc2N1 [Compound 143]	27.5%
O=C(/C=C/c1cnc2c(c1)CC1(CCN(C(=O)CO)CC1)C(=O)N2)N1CC=C(Cc2cccs2)CC1 [Compound 138]	44.3%
O=C1CCc2cc(/C=C/C(=O)N3CC=C(Cc4cccc(F)c4)CC3)cnc2N1 [Compound 65]	90.6%
NC(=O)N1CCC2(CC1)Cc1cc(/C=C/C(=O)N3CC=C(Cc4cccs4)CC3)cnc1NC2=O [Compound 139]	21.6%
CN1CCC2(CC1)Cc1cc(/C=C/C(=O)N3CC=C(Cc4cccs4)CC3)cnc1NC2=O [Compound 146]	57.9%
O=C1CCNc2cc(/C=C/C(=O)N3CC=C(Cc4cccs4)CC3)cnc2N1 [Compound 91]	81.3%
O=C1CCc2cc(/C=C/C(=O)N3CC=C(Cc4cncs4)CC3)cnc2N1 [Compound 145]	83.3%

---

System: MSSA
ASSAY: MIC by broth microdilution method
Type: cell-based

SMI	MIC Vs MRSA (μg/ml) MSSA
O=C1CCc2cc(/C=C/C(=O)N3CC=C(Cc4ccccc4F)CC3)cnc2N1	0.25 µg/mL
O=C1CCc2cc(/C=C/C(=O)N3CC=C(Cc4cccc(F)c4)CC3)cnc2N1	0.25 µg/mL
O=C1CCc2cc(/C=C/C(=O)N3CC=C(Cc4ccccc4)CC3)cnc2N1	0.25 µg/mL
O=C1CCc2cc(/C=C/C(=O)N3CC=C(Cc4nccs4)CC3)cnc2N1	0.5 µg/mL
O=C1CCc2cc(/C=C/C(=O)N3CC=C(Cc4sccc4Cl)CC3)cnc2N1	0.5 µg/mL
Cc1ccc(CC2=CCN(C(=O)/C=C/c3cnc4c(c3)CCC(=O)N4)CC2)cc1	1 µg/mL
O=C1CCc2cc(/C=C/C(=O)N3CC=C(Cc4cccs4)CC3)cnc2N1	0.125 µg/mL

---

Assay read-out MIC; system under study: MRSA.

COMPOUND	VALUE_PREFIX	MIC [µg/mL]
O=C(/C=C/c1cnc2c(c1)CN(CCN1CCOCC1)C(=O)N2)N1CC=C(Cc2cccs2)CC1 [Compound 90]	>	128
O=C1CCNc2cc(/C=C/C(=O)N3CC=C(Cc4cccs4)CC3)cnc2N1 [Compound 91]	=	0.5
CC(C)(C)OC(=O)N1CCC2(CC1)Cc1cc(/C=C/C(=O)N3CC=C(Cc4cccs4)CC3)cnc1NC2=O [Compound 94]	=	0.5
O=C1CCc2cc(/C=C/C(=O)N3CC=C(c4ccccc4)CC3)cnc2N1 [Compound 2]	=	0.5
CC(=O)Nc1ccc(/C=C/C(=O)N2CC=C(Cc3cccs3)CC2)cn1 [Compound 88]	>	128
CN1CC(=O)Nc2ncc(/C=C/C(=O)N3CC=C(Cc4cccs4)CC3)cc2C1 [Compound 93]	=	0.5
O=C1CNCc2cc(/C=C/C(=O)N3CC=C(Cc4cccs4)CC3)cnc2N1 [Compound 92]	=	0.25
O=C1CCc2cc(/C=C/C(=O)N3CC=C(COc4ccccc4)CC3)cnc2N1 [Compound 107]	=	4
CC(=O)N1CCC2(CC1)Cc1cc(/C=C/C(=O)N3CC=C(Cc4cccs4)CC3)cnc1NC2=O [Compound 96]	=	8

---

ASSAY: Metabolic stability study in mouse liver microsomes
Format: in vitro ADME
EXPERIMENTAL_CONTEXT: 1 μM, 37° C., 60 min
Consider the following compounds and their measured Percentage of compound remained after 60 min readings.
READOUT_NAME: Percentage of compound remained after 60 min (%)

SMI	VALUE_MEASURED
O=C1CCc2cc(/C=C/C(=O)N3CC=C(c4ccccc4)CC3)cnc2N1	97.9
O=C(/C=C/c1cnc2c(c1)CN(CCN1CCOCC1)C(=O)N2)N1CC=C(Cc2cccs2)CC1	22.9
CC(C)CC(=O)N1CCC2(CC1)Cc1cc(/C=C/C(=O)N3CC=C(Cc4cccs4)CC3)cnc1NC2=O	1.7
NC(=O)N1CCC2(CC1)Cc1cc(/C=C/C(=O)N3CC=C(Cc4cccs4)CC3)cnc1NC2=O	7.3
O=C(/C=C/c1cnc2c(c1)CC1(CCN(C(=O)CO)CC1)C(=O)N2)N1CC=C(Cc2cccs2)CC1	10.2
O=C1CCc2cc(/C=C/C(=O)N3CC=C(Cc4cccc(F)c4)CC3)cnc2N1	75.0
CN1CC(=O)Nc2ncc(/C=C/C(=O)N3CC=C(Cc4cccs4)CC3)cc2C1	1.1
O=C1CCNc2cc(/C=C/C(=O)N3CC=C(Cc4nccs4)CC3)cnc2N1	15.8
Cc1cnc(CC2=CCN(C(=O)/C=C/c3cnc4c(c3)CCC(=O)N4)CC2)s1	57.1
CC(C)(C)OC(=O)N1CCC2(CC1)Cc1cc(/C=C/C(=O)N3CC=C(Cc4cccs4)CC3)cnc1NC2=O	37.6
CC(=O)Nc1ccc(/C=C/C(=O)N2CC=C(Cc3cccs3)CC2)cn1	5.5
CN1CCC2(CC1)Cc1cc(/C=C/C(=O)N3CC=C(Cc4cccs4)CC3)cnc1NC2=O	15.8
O=C1CCc2cc(/C=C/C(=O)N3CC=C(Cc4cncs4)CC3)cnc2N1	60.2
O=C1CCc2cc(/C=C/C(=O)N3CC=C(Cc4ccccc4)CC3)cnc2N1	54.2
O=C1CCNc2cc(/C=C/C(=O)N3CC=C(Cc4cccs4)CC3)cnc2N1	79.3
O=C(/C=C/c1cnc2c(c1)CN(CCN1CCC3(CC1)COC3)C(=O)N2)N1CC=C(Cc2cccs2)CC1	2.2

---

Listed here are compounds together with their documented FAB-I inhibition %@1 μM.
System: Fab I
EXPERIMENTAL_CONTEXT: 1 μM compound

COMPOUND	ASSAY_SYSTEM	FAB-I inhibition %@1 μM / %
O=C1CCc2cc(/C=C/C(=O)N3CC=C(COc4ccc(Cl)cc4)CC3)cnc2N1 [Compound 113]	Fab I	36
CN1CC(=O)Nc2ncc(/C=C/C(=O)N3CC=C(Cc4cccs4)CC3)cc2C1 [Compound 93]	Fab I	93
O=C1CCc2cc(/C=C/C(=O)N3CC=C(c4ccccc4)CC3)cnc2N1 [Compound 2]	Fab I	86
CC(=O)Nc1ccc(/C=C/C(=O)N2CC=C(Cc3cccs3)CC2)cn1 [Compound 88]	Fab I	87
O=C1CCc2cc(/C=C/C(=O)N3CC=C(c4ccc(F)cc4)CC3)cnc2N1 [Compound 8]	Fab I	108
O=C1CCc2cc(/C=C/C(=O)N3CC=C(Cc4nccs4)CC3)cnc2N1 [Compound 97]	Fab I	66.85
O=C1CCc2cc(/C=C/C(=O)N3CC=C(Cc4ccccc4F)CC3)cnc2N1 [Compound 66]	Fab I	84
O=C1CCc2cc(/C=C/C(=O)N3CC=C(Cc4ccccc4)CC3)cnc2N1 [Compound 62]	Fab I	76

---

Target or system MRSE: recorded MIC listed per item.

COMPOUND	UNIT_ABBREVIATION	VALUE_PREFIX	MIC
CC(=O)N1CCC2(CC1)Cc1cc(/C=C/C(=O)N3CC=C(Cc4cccs4)CC3)cnc1NC2=O [Compound 96]	µg/mL	=	16
CC(=O)Nc1ccc(/C=C/C(=O)N2CC=C(Cc3cccs3)CC2)cn1 [Compound 88]	µg/mL	>	128
O=C1CCNc2cc(/C=C/C(=O)N3CC=C(Cc4cccs4)CC3)cnc2N1 [Compound 91]	µg/mL	=	0.5
CC(C)(C)OC(=O)N1CCC2(CC1)Cc1cc(/C=C/C(=O)N3CC=C(Cc4cccs4)CC3)cnc1NC2=O [Compound 94]	µg/mL	=	1
